- tgt: T1, human plasma Kallikrein (human, UniProt P03952 20-638, limits assumed)
- T1 construct: also called hPK; human PK
- test.protocol: enzyme inhibition assay
Numbered stars: 1 amine (or outer) side, 2 acyl side, 3 side chain; on linkers, the order of the positions; unused ones are H or OH. Bridge positions count the residues as written; N and C are the ends. Square brackets hold non-standard residues; d marks the D form. Tpi = O=C(O)[C@@H]1Cc2c([nH]c3ccccc23)CN1; 1Nal = N[C@@H](Cc1cccc2ccccc12)C(=O)O; TBMB = c1c(C[*:1])cc(C[*:3])cc1C[*:2]
Catalogue of Ki values
reported.metric: Ki (nM)

1) Ac-CS[Tpi]PARCLHQDLC-NH2 (linker 1-7-13 via TBMB; SMILES CC(=O)N[C@H]1CSCc2cc3cc(c2)CSC[C@H](NC(=O)[C@H](CCCNC(=N)N)NC(=O)[C@H](C)NC(=O)[C@@H]2CCCN2C(=O)[C@@H]2Cc4c([nH]c5ccccc45)CN2C(=O)[C@H](CO)NC1=O)C(=O)N[C@@H](CC(C)C)C(=O)N[C@@H](Cc1c[nH]cn1)C(=O)N[C@@H](CCC(N)=O)C(=O)N[C@@H](CC(=O)O)C(=O)N[C@@H](CC(C)C)C(=O)N[C@H](C(N)=O)CSC3) [Ac-(06-34-18) NorHar2]    24
2) Ac-CS[1Nal]PARCLHQDLC-NH2 (linker 1-7-13 via TBMB; SMILES CC(=O)N[C@H]1CSCc2cc3cc(c2)CSC[C@H](NC(=O)[C@H](CCCNC(=N)N)NC(=O)[C@H](C)NC(=O)[C@@H]2CCCN2C(=O)[C@H](Cc2cccc4ccccc24)NC(=O)[C@H](CO)NC1=O)C(=O)N[C@@H](CC(C)C)C(=O)N[C@@H](Cc1c[nH]cn1)C(=O)N[C@@H](CCC(N)=O)C(=O)N[C@@H](CC(=O)O)C(=O)N[C@@H](CC(C)C)C(=O)N[C@H](C(N)=O)CSC3) [Ac-(06-34-18) 1NAL2]    10.7
